Reference source: PubChem BioAssay

molecular target: L-lactate dehydrogenase (Plasmodium falciparum (isolate CDC / Honduras)) (UniProt Q27743); assay: PfLDH activity inhibition – cell lysate, 3D7 strain, counter-screen for P. falciparum growth inhibition project (AID 2304);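 note: 0% = vehicle and 100% = reference inhibitor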; settings: P. falciparum 3D7 crude extract, LDH APAD/NBT absorbance; at 2 µM; stronger effect = higher value
Sequence (Q27743 whole entry, looked up): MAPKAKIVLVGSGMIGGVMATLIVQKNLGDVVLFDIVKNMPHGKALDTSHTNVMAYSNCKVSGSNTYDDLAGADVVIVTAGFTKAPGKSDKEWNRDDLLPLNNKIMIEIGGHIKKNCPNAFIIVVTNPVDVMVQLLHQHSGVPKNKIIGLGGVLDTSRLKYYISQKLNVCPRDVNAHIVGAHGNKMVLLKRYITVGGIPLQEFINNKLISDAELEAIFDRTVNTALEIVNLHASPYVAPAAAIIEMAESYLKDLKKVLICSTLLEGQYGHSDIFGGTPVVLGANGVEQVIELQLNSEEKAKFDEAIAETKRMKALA
Observation type: inhibition (%)
Give bare numbers, in %.

Answered examples (6):
Cc1nc2nc(N)nc(N)c2c(C)c1Cc1ccccc1Cl ... -3
CC(O)C1CCCCN1C(=O)c1ccc(-c2cccc(-c3nc4ccc(F)cc4[nH]3)c2)cc1 (stereo unspecified) ... -6
COc1cc(C)nc2ccc(NC(=O)Nc3ccc([N+](=O)[O-])cc3C)cc12 ... -5
Cc1cc(C)cc(NC(=S)NCCCCN2CCN(c3cccc(Cl)c3)CC2)c1 ... 3
CN1CCN(c2cc(-c3cccc(C(F)(F)F)c3)nc(-c3ccncc3)n2)CC1 ... 1
COc1ccc(N2C(=O)c3c(c4ccccc4n3C)C2c2ccccc2O)cc1 (stereo unspecified) ... 3

Please give inhibition for each item listed below.
1. O=S(=O)(NCCN1CCCC1)c1cccc(-c2ccc(CNCc3ccccc3)cc2)c1
2. CC(C)Nc1cc(C(=O)N[C@@H](Cc2ccccc2)[C@H](O)CNC(C)(C)c2cccc(C(F)(F)F)c2)cc(N2CCCCS2(=O)=O)c1
3. FC(F)(F)c1cccc(CNCC2CCN(CC3CCCCC3)CC2)c1
4. CN1CCC(NCc2cccc(-c3ccc(S(=O)(=O)NCCN4CCCC4)c(F)c3)c2)CC1
5. CCN(CC)CCCNC(=O)/C(=C/C=C/c1cc2cc(Cl)c(Cl)cc2[nH]1)OC
6. CCOC(=O)c1[nH]c(-c2ccc(-c3ccccc3)cc2)nc1N

Response:
1. -8
2. 2
3. 3
4. 2
5. -2
6. 6

Please give inhibition for each item listed below.
1. CCC(C)CN1CCN(c2cc(NC(=O)c3cccs3)ccn2)C(C)C1 (stereo unspecified)
2. Cc1cccc2[nH]c(-c3ccc(-c4cccc(CNC(C)C)c4)s3)nc12
3. COc1ccc(CN(C)CCCc2ccc(NC(=O)c3cc4ccccc4[nH]3)cc2)cc1OC
4. COc1ccc(-c2onc(C(F)(F)F)c2-c2ccc(Br)cc2)c(O)c1

Response:
0
2
-5
4
